target: T1, HLA-DRB1*0401 (human); assay: inhibition of 125I probe peptide binding to purified HLA-DR, gel filtration
T1 construct: Purified HLA molecule; also called DR4w4

binder	IC50
DEAYVMAGVGSPYVS (Synthetic peptide) [Her2/neu.769]	196 nM
